Target: human LAG3 expressed on cells (human) (UniProt P18627)
Sequence (P18627 23-525): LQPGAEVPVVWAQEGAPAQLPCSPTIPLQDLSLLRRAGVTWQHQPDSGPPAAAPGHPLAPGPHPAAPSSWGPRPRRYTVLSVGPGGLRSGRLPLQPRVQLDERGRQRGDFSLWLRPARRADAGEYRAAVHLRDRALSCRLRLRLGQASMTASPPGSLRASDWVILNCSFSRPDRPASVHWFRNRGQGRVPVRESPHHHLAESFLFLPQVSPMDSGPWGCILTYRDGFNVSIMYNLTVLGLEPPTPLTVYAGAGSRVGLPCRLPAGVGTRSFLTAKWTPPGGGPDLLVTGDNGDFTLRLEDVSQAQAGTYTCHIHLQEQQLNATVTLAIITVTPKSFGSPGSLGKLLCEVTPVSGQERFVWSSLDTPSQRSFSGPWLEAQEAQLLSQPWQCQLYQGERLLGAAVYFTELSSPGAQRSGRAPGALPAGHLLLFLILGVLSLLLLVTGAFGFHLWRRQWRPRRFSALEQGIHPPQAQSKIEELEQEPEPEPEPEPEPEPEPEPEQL
Experiment: cell-based or functional assay
Measured Quantity: IL-2, % of BMS, at 0.003048316 ug/mL (%)
Numbers only, in %.

sdAb fusion 25-2015-3 (Fc fusion, not shown: a dimerising Fc or GST) QLQLVESGGGLVQAGGSLRLSCAASGSIESFSFMGWYRQAPGKQRELVAGFTGAASLSFSTYTDAVKGRFTISRDNAKNTVYLQMNSLKPEDTAVYFCNVDPWSQSWPGRYWGQGTQVTVSSGGGGSGGGGSGGGGSQLQLVESGGGLAQTGGSLRLSCAAAGFTFDDTATGWFRQAPGKNREGVACISSSDGRIHYIDSAKGRFTISKDNAKKTVYLQMDSLKPEDTAVYYCAAARKGSTDCQGAIWGSWGQGTQVIVSSEPKSCDKTHTCPPCPAPELLG	10.7

What does the record list as IL-2, % of BMS, at 0.003048316 ug/mL for sdAb fusion 25-17-1 (Fc fusion, not shown: a dimerising Fc or GST) QLQLVESGGGLVQAGGSLRLSCAASGSIESFSFMGWYRQAPGKQRELVAGFTGAASLSFSTYTDAVKGRFTISRDNAKNTVYLQMNSLKPEDTAVYFCNVDPWSQSWPGRYWGQGTQVTVSSGGGGSQLQLVESGGGLVQPGGSLRLSCAASGLTLDGYAIGWFRQAPGKEREGLACISGSDGSTHYLDSVKGRFTISRDNGKNTMALQMNSLQFGDTAIYYCAARRGSCSGSWTYWGQGTQVTVSS ?
4.1
